- target_under_test: Mcl-1 (Homo sapiens (Human), UniProt Q07820)
- Sequence (Q07820 172-327): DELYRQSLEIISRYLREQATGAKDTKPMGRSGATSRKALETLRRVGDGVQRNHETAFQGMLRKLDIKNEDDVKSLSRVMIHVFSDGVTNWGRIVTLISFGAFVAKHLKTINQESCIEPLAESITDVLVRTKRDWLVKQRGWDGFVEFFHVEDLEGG
- protocol_notes: Fluorescence polarization anisotropy (FPA) competition assay, FITC-Bak or FITC-Bim BH3 peptide
- Type: binding
- recorded_conditions: read-out: Ki for Inhibition of Mcl-1 by FPA assay
pKi: −log10 of the molar value.
reported_metric: pKi

# compound, reported_metric, data_value
records = [
    ("Cc1cc(N2C[C@@H](C)n3c(c(CCCOc4cc(C)c(Cl)c(C)c4)c4ccc(Cl)c(-c5c(C)nc(CN6CCN(C)CC6)nc5C)c43)C2=O)c2c(c1)cc(C(=O)O)n2C [Example 426]", "pKi", "> 9.00"),
]

Enquiry: Under Mcl-1 (Homo sapiens (Human), UniProt Q07820), report pKi for COC(=O)c1ccc2c(c1)c(N1C[C@@H](C)n3c(c(CCCOc4cc(C)c(Cl)c(C)c4)c4ccc(Cl)c(-c5c(C)nn(C)c5C)c43)C1=O)cn2C (single isomer, unassigned) [Example 207]
Return: > 9.00
